- assay-summary: Liver S9 stability (SD rat, beagle, human), overall
- Format: in vitro ADME
quantity: Liver S9 stability (in words)

compound_structure_string=COc1ccc(S(N)(=O)=O)cc1Nc1nccc(N(C)c2ccc(N)cc2)n1 value_observed="Very stable"
compound_structure_string=Cc1ccc(O)cc1Nc1ccnc(Nc2ccc(C(N)=O)cc2)n1 value_observed="Rapid clearance"
compound_structure_string=Cc1ccc(O)cc1Nc1ccnc(Nc2cccc(S(C)(=O)=O)c2)n1 value_observed="Rapid clearance"
compound_structure_string=COc1cc(Nc2nccc(Nc3ccc(N)cc3)n2)cc(S(C)(=O)=O)c1 value_observed="Very stable"

====

- Tested on: 97 kinases (90 WT kinase and 7 mutants)
- assay-summary: Kinase selectivity profiling (ScanEDGE, DiscoveRx) competition binding, qPCR readout
- run-parameters: number of hits/number of assays, excluding mutants; 1000 nM
// reported Selectivity Score S(10) per item
Number, no unit, nothing else.

// below: answered molecules
compound_structure_string=COc1ccc(S(N)(=O)=O)cc1Nc1nccc(N(C)c2ccc(N)cc2)n1 value_observed=0.089
compound_structure_string=Cc1ccc(O)cc1Nc1ccnc(Nc2ccc(C(N)=O)cc2)n1 value_observed=0.089
compound_structure_string=COc1cc(Nc2nccc(Nc3ccc(N)cc3)n2)cc(S(C)(=O)=O)c1 value_observed=0.122

The record that follows has no Selectivity Score S(10) shown yet.
Entry Cc1ccc(O)cc1Nc1ccnc(Nc2cccc(S(C)(=O)=O)c2)n1 , Selectivity Score S(10) reported as 0.244

# credit: patent US20250177391A1
